Test system: Aspergillus fumigatus
Assay text: Antifungal activity against Aspergillus fumigatus ATCC 10894 at 100 ug/disk after 24 hrs
Format: functional, organism-based
The source made the active and inactive calls. The rule behind the calls is not given here.
Readout kind: Activity

INSERT INTO measurements (compound, value_observed) VALUES
  ('O=C1C[C@@H]2SS[C@@]34C[C@@H]1[C@@H]([C@H]2O)N3C(=O)[C@@]12C[C@H]3C(=O)C[C@H](SS1)[C@H](O)[C@H]3N2C4=O', 'inactive'),
  ('O=C1C[C@@H]2S[C@@]34C[C@@H]1[C@@H]([C@H]2O)N3C(=O)[C@@]12C[C@H]3C(=O)C[C@H](S1)[C@H](O)[C@H]3N2C4=O', 'inactive'),
  ('O=C1C[C@@H]2SS[C@@]34C[C@@H]1[C@@H]([C@H]2O)N3C(=O)[C@@]12C[C@H]3C(=O)[C@H](S1)[C@H](O)[C@H](O)[C@H]3N2C4=O', 'inactive'),
  ('O=C1C[C@H]2SS[C@@]34C[C@@H]1[C@@H]([C@H]2O)N3C(=O)[C@@]12C[C@H]3C(=O)C[C@@H](S1)[C@H](O)[C@H]3N2C4=O [EPICOCCIN A]', 'inactive');
